target: B-RAF V600E (Homo sapiens, UniProt P15056, V600E)
Construct: expressed in transfected cells; host or cells: T-Rex 293 cells (Invitrogen #R71007)
Sequence (P15056 whole entry V600E): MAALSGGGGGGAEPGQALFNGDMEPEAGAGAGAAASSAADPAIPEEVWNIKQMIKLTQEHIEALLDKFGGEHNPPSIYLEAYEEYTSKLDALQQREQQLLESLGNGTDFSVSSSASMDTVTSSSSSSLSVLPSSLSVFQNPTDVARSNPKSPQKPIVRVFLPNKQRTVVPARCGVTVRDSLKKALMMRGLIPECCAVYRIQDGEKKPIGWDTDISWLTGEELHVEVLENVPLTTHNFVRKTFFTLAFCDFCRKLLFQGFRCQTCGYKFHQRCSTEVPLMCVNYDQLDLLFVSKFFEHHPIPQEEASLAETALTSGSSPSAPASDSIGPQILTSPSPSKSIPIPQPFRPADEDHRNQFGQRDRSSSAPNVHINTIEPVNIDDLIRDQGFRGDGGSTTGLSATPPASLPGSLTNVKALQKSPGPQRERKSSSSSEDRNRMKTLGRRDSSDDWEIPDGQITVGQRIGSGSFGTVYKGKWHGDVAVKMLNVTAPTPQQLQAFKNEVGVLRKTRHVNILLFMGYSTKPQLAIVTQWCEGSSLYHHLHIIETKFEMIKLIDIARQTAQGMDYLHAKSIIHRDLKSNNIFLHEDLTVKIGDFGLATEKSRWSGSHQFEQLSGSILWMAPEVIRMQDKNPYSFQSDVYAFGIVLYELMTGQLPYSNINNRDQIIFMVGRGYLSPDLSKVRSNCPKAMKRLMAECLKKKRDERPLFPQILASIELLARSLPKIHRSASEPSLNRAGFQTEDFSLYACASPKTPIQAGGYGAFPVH
assay explanation: Target protein degradation, assay C: T-Rex 293 cells, HA-BRAF_V600E, 384 well format
Type: cell-based
experimental context: T-REx-293, Assay C, T-Rex 293 HA-BRAF_V600E cells, 24 hours, Examples 83-269
Would you kindly list Dmax for each of these compounds?

Simply: `CN(c1ccc(-n2cnc3ccc(Oc4c(F)ccc(NS(=O)(=O)N5CC[C@@H](F)C5)c4C#N)cc3c2=O)cc1)[C@H]1CC[C@@H](N2CCN(c3ccc4c(c3)CN([C@H]3CCC(=O)NC3=O)C4=O)CC2)CC1` , B-RAF V600E (Homo sapiens, UniProt P15056, V600E), Dmax = ≤ 35%

Simply: `N#Cc1c(NS(=O)(=O)N2CC[C@@H](F)C2)ccc(F)c1Oc1ccc2ncn(-c3ccc(N4CCC5(CC4)CN(CC4CCN(c6ccc7c(c6)CN([C@@H]6CCC(=O)NC6=O)C7=O)CC4)C5)cc3)c(=O)c2c1` , B-RAF V600E (Homo sapiens, UniProt P15056, V600E), Dmax = 35 to 70%

Simply: N#Cc1c(NS(=O)(=O)N2CC[C@@H](F)C2)ccc(F)c1Oc1ccc2ncn(C3COC4(CCN(C(=O)CC5(O)CCN(c6ccc7c(c6)CN([C@H]6CCC(=O)NC6=O)C7=O)CC5)CC4)C3)c(=O)c2c1 (stereo partly shown) , B-RAF V600E (Homo sapiens, UniProt P15056, V600E), Dmax = 35 to 70%

Simply: N#Cc1c(NS(=O)(=O)N2CC[C@@H](F)C2)ccc(F)c1Oc1ccc2ncn(-c3ccc(N4CCC(CCCN5CCN(c6ccc7c(c6)C(=O)N(C6CCC(=O)NC6=O)C7=O)CC5)CC4)nc3)c(=O)c2c1 (stereo partly shown) , B-RAF V600E (Homo sapiens, UniProt P15056, V600E), Dmax = 35 to 70%

====

target: B-RAF G466V (Homo sapiens, UniProt P15056, G466V)
Construct: expressed in transfected cells; host or cells: T-Rex 293 cells (Invitrogen #R71007)
Sequence (P15056 whole entry G466V): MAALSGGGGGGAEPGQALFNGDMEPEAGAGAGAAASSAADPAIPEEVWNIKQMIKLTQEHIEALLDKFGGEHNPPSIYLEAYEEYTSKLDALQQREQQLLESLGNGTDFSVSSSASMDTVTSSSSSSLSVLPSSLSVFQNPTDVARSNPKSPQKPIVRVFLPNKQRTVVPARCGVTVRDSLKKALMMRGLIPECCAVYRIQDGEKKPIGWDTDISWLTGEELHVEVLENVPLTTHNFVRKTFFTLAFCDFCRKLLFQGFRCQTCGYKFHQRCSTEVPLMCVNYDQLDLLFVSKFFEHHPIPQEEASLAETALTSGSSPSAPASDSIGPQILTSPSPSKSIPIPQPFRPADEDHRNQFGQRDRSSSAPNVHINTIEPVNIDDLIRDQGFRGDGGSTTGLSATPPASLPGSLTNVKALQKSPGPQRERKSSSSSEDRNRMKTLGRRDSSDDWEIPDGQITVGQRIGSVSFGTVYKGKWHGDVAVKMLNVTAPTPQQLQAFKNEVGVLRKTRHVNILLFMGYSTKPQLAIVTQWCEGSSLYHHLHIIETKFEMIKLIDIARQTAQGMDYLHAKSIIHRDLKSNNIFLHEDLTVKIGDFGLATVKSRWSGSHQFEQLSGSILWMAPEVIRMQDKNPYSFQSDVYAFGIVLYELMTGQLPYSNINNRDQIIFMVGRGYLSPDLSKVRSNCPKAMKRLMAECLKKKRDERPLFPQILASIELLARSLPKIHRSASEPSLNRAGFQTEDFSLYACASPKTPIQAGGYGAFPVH
assay explanation: Target protein degradation, assay D: T-Rex 293 cells, HA-BRAF_G466V, 384 well format
Format: cell-based
experimental context: Assay D, T-Rex 293 HA-BRAF_G466V cells, 24 hours, Examples 83-269
Would you kindly list DC50 for each of these compounds?

Simply: N#Cc1c(NS(=O)(=O)N2CC[C@@H](F)C2)ccc(F)c1Oc1ccc2ncn(-c3cnc(C4(N5CCN(CC6CCN(c7ccc8c(c7)CN(C7CCC(=O)NC7=O)C8=O)CC6)CC5)CC4)nc3)c(=O)c2c1 (some centres unmarked) , B-RAF G466V (Homo sapiens, UniProt P15056, G466V), DC50 = 1 to 10 nM

Simply: N#Cc1c(NS(=O)(=O)N2CC[C@@H](F)C2)ccc(F)c1Oc1ccc2ncn(-c3ccc(N4CCC(COCC5CCN(c6ccc7c(c6)C(=O)N(C6CCC(=O)NC6=O)C7=O)CC5)CC4)nc3)c(=O)c2c1 (some centres unmarked) , B-RAF G466V (Homo sapiens, UniProt P15056, G466V), DC50 = 10 to 30 nM

Simply: Cc1c(NS(=O)(=O)N2CC[C@@H](F)C2)ccc(F)c1Oc1ccc2ncn(-c3ccc(N4CCN(CC5CCN(c6ccc7c(c6)CN(C6CCC(=O)NC6=O)C7=O)CC5)CC4)cc3)c(=O)c2c1 (some centres unmarked) , B-RAF G466V (Homo sapiens, UniProt P15056, G466V), DC50 = 10 to 30 nM

Simply: N#Cc1c(NS(=O)(=O)N2CC[C@@H](F)C2)ccc(F)c1Oc1ccc2ncn(-c3ccc(N4CC(CN5CCN(C6CCN(c7ccc8c(c7)C(=O)N(C7CCC(=O)NC7=O)C8=O)CC6)CC5)C4)nc3)c(=O)c2c1 (some centres unmarked) , B-RAF G466V (Homo sapiens, UniProt P15056, G466V), DC50 = 1 to 10 nM

Simply: N#Cc1c(NS(=O)(=O)N2CC[C@@H](F)C2)ccc(F)c1Oc1ccc2ncn(-c3ccc(N4CCN(CC5CCN(c6ccc(F)c(C(=O)NC7CCC(=O)NC7=O)c6)CC5)CC4)nc3)c(=O)c2c1 (some centres unmarked) , B-RAF G466V (Homo sapiens, UniProt P15056, G466V), DC50 = > 30 nM

====

target: B-RAF V600E (Homo sapiens, UniProt P15056, V600E)
Construct: expressed in transfected cells; host or cells: T-Rex 293 cells (Invitrogen #R71007)
assay explanation: Target protein degradation, assay C: T-Rex 293 cells, HA-BRAF_V600E, 384 well format
Assay type: cell-based
experimental context: T-REx-293, Assay C, T-Rex 293 HA-BRAF_V600E cells, 24 hours, Examples 83-269
readout label: Dmax

Kindly note the recorded Dmax for `N#Cc1c(NS(=O)(=O)N2CC[C@@H](F)C2)ccc(F)c1Oc1ccc2ncn(-c3ccc(N4CCC5(CCN(CC6CCN(c7ccc8c(c7)CN([C@H]7CCC(=O)NC7=O)C8=O)CC6)CC5)CC4)cc3)c(=O)c2c1` , which is 35 to 70%

Kindly note the recorded Dmax for N#Cc1c(NS(=O)(=O)N2CC[C@@H](F)C2)ccc(F)c1Oc1ccc2ncn(-c3ccc(N4CCN(CC5CCN(c6ccc(F)c(C(=O)NC7CCC(=O)NC7=O)c6)CC5)CC4)nc3)c(=O)c2c1 (stereo partly drawn) , which is ≤ 35%

Kindly note the recorded Dmax for `N#Cc1c(NS(=O)(=O)N2CC[C@@H](F)C2)ccc(F)c1Oc1ccc2ncn(-c3ccc(N4CC(CN5CC(c6ccc7c(c6)CN([C@H]6CCC(=O)NC6=O)C7=O)C5)C4)cc3)c(=O)c2c1` , which is 35 to 70%

Kindly note the recorded Dmax for N#Cc1c(NS(=O)(=O)N2CC[C@@H](F)C2)ccc(F)c1Oc1ccc2ncn(-c3ccc(N4CCC5(CCN(c6ccc7c(c6)C(=O)N(C6CCC(=O)NC6=O)C7=O)CC5)CC4)nc3)c(=O)c2c1 (stereo partly drawn) , which is ≤ 35%

Kindly note the recorded Dmax for `N#Cc1c(NS(=O)(=O)N2CC[C@@H](F)C2)ccc(F)c1Oc1ccc2ncn(-c3ccc(N4CCN(CC5(F)CCN(c6ccc7c(c6)CN([C@H]6CCC(=O)NC6=O)C7=O)CC5)CC4)cc3)c(=O)c2c1` , which is 35 to 70%

Kindly note the recorded Dmax for N#Cc1c(NS(=O)(=O)N2CC[C@@H](F)C2)ccc(F)c1Oc1ccc2ncn(-c3ccc(N4CCN(c5ccc(C(=O)NC6CCC(=O)NC6=O)c(F)c5)CC4)nc3)c(=O)c2c1 (stereo partly drawn) , which is 35 to 70%

Kindly note the recorded Dmax for `N#Cc1c(NS(=O)(=O)N2CC[C@@H](F)C2)ccc(F)c1Oc1ccc2ncn(-c3ccc(N4CCC(CN5CC6(CCC(c7ccc8c(c7)CN([C@H]7CCC(=O)NC7=O)C8=O)CC6)C5)CC4)cc3)c(=O)c2c1` , which is 35 to 70%

Kindly note the recorded Dmax for N#Cc1c(NS(=O)(=O)N2CC[C@@H](F)C2)ccc(F)c1Oc1ccc2ncn(-c3ccc(N4CCC(O[C@H]5C[C@H](N6CCC(c7ccc8c(c7)CN(C7CCC(=O)NC7=O)C8=O)CC6)C5)CC4)cc3)c(=O)c2c1 (stereo partly drawn) , which is 35 to 70%

Kindly note the recorded Dmax for N#Cc1c(NS(=O)(=O)N2CC[C@@H](F)C2)ccc(F)c1Oc1ccc2ncn(-c3ccc(N4CCC(CC5CCCN5c5ccc6c(c5)C(=O)N(C5CCC(=O)NC5=O)C6=O)CC4)nc3)c(=O)c2c1 (stereo partly drawn) , which is ≤ 35%

====

target: B-RAF G466V (Homo sapiens, UniProt P15056, G466V)
Construct: expressed in transfected cells; host or cells: T-Rex 293 cells (Invitrogen #R71007)
assay explanation: Target protein degradation, assay B: T-Rex 293 cells, HA-B-RAF_G466V, 96 well format
Assay type: cell-based
experimental context: T-Rex 293 HA-B-RAF_G466V cells, 24 hours, Examples 1-82
Would you kindly list DC50 for each of these molecules?

Simply: N#Cc1c(NS(=O)(=O)N2CC[C@@H](F)C2)ccc(F)c1Oc1ccc2ncn(-c3ccc(N4CCN(CC5CCN(c6ccc(NC7CCC(=O)NC7=O)cc6F)CC5)CC4)cc3)c(=O)c2c1 (stereo partly shown) , B-RAF G466V (Homo sapiens, UniProt P15056, G466V), DC50 = > 30 nM

Simply: N#Cc1c(NS(=O)(=O)N2CC[C@@H](F)C2)ccc(F)c1Oc1ccc2ncn(-c3ccc(N4CCN(CC5CCN(c6ccc(C7CCC(=O)NC7=O)cc6F)CC5)CC4)cc3)c(=O)c2c1 (stereo partly shown) , B-RAF G466V (Homo sapiens, UniProt P15056, G466V), DC50 = > 30 nM

Simply: N#Cc1c(NS(=O)(=O)N2CC[C@@H](F)C2)ccc(F)c1Oc1ccc2ncn(-c3ccc(N4CCN(CC5CCN(c6ccc7c(c6)CN(C6CCC(=O)NC6=O)C7=O)CC5)CC4)nc3)c(=O)c2c1 (stereo partly shown) , B-RAF G466V (Homo sapiens, UniProt P15056, G466V), DC50 = 1 to 10 nM

Simply: N#Cc1c(NS(=O)(=O)N2CC[C@@H](F)C2)ccc(F)c1Oc1ccc2ncn(-c3cnc(N4CCN(c5ccc6c(c5)C(=O)N(C5CCC(=O)NC5=O)C6=O)CC4)nc3)c(=O)c2c1 (stereo partly shown) , B-RAF G466V (Homo sapiens, UniProt P15056, G466V), DC50 = > 30 nM

Simply: Cn1c(=O)n(C2CCC(=O)NC2=O)c2ccc(N3CCC(CN4CCN(c5ccc(-n6cnc7ccc(Oc8c(F)ccc(NS(=O)(=O)N9CC[C@@H](F)C9)c8C#N)cc7c6=O)cc5)CC4)CC3)cc21 (stereo partly shown) , B-RAF G466V (Homo sapiens, UniProt P15056, G466V), DC50 = 1 to 10 nM

Simply: N#Cc1c(NS(=O)(=O)N2CC[C@@H](F)C2)ccc(F)c1Oc1ccc2ncn(-c3ccc(N4CCN(C(=O)CC5(O)CCN(c6ccc(NC7CCC(=O)NC7=O)cc6F)CC5)CC4)nc3)c(=O)c2c1 (stereo partly shown) , B-RAF G466V (Homo sapiens, UniProt P15056, G466V), DC50 = 1 to 10 nM

Simply: N#Cc1c(NS(=O)(=O)N2CC[C@@H](F)C2)ccc(F)c1Oc1ccc2ncn(-c3ccc(N4CCN(CC5CCN(c6ccc(NC7CCC(=O)NC7=O)cc6F)CC5)CC4)nc3)c(=O)c2c1 (stereo partly shown) , B-RAF G466V (Homo sapiens, UniProt P15056, G466V), DC50 = > 30 nM

Simply: N#Cc1c(NS(=O)(=O)N2CC[C@@H](F)C2)ccc(F)c1Oc1ccc2ncn(-c3cnc(N4CCN(CC5CN(c6ccc7c(c6)CN(C6CCC(=O)NC6=O)C7=O)C5)CC4)nc3)c(=O)c2c1 (stereo partly shown) , B-RAF G466V (Homo sapiens, UniProt P15056, G466V), DC50 = > 30 nM

Simply: `N#Cc1c(NS(=O)(=O)N2CC[C@@H](F)C2)ccc(F)c1Oc1ccc2ncn(-c3ccc(N4CCN(C(=O)CC5(O)CCN(c6ccc7c(c6)CN([C@H]6CCC(=O)NC6=O)C7=O)CC5)CC4)nc3)c(=O)c2c1` , B-RAF G466V (Homo sapiens, UniProt P15056, G466V), DC50 = 10 to 30 nM

Simply: `N#Cc1c(NS(=O)(=O)N2CC[C@@H](F)C2)ccc(F)c1Oc1ccc2ncn(-c3ccc(N4CCN(CC5CCN(c6ccc7c(c6F)CN([C@H]6CCC(=O)NC6=O)C7=O)CC5)CC4)cc3)c(=O)c2c1` , B-RAF G466V (Homo sapiens, UniProt P15056, G466V), DC50 = 1 to 10 nM
